The following compounds are listed with their measured AUC(0-t) values.
assayComment: Pharmacokinetics study after separate oral administration in rats (HPLC-MS of plasma)
Format: in vivo, Sprague-Dawley rats
settings: male, Sprague-Dawley, rat, plasma, po, 50 mg/kg, QG group: oral QG 50 mg/kg, rat plasma, mean ± SD, n = 5; read-out: AUC0−t (converted)
Give your result as the value with the unit written after it.

{"compound": "O=c1c(O)c(-c2ccc(O)c(O)c2)oc2cc(O)cc(O)c12", "observedValue": "58400 ng·h/mL"}

--- query ---
[Q] Bench note: what AUC(0-t) did O=C(O)[C@H]1O[C@@H](Oc2c(-c3ccc(O)c(O)c3)oc3cc(O)cc(O)c3c2=O)[C@H](O)[C@@H](O)[C@@H]1O [QG, Quercetin-3-O-β-D-glucuronide] show?
[A] 16000 ng·h/mL

----------
assayComment: Pharmacokinetics study after separate oral administration in rats (HPLC-MS of plasma)
Assay type: in vivo, Sprague-Dawley rats
settings: male, Sprague-Dawley, rat, plasma, po, 50 mg/kg, QG group (oral QG 50 mg/kg), rat plasma; labelled substance = analyte; mean of 5 rats; read-out: t1/2z
measurementLabel: half-life (h)
// return numeric value only (unit: h, not printed)

{"compound": "O=C(O)[C@H]1O[C@@H](Oc2c(-c3ccc(O)c(O)c3)oc3cc(O)cc(O)c3c2=O)[C@H](O)[C@@H](O)[C@@H]1O [QG, Quercetin-3-O-β-D-glucuronide]", "unitsOfMeasure": "h", "half-life": 6.27}

--- query ---
[Q] Bench note: what half-life did O=c1c(O)c(-c2ccc(O)c(O)c2)oc2cc(O)cc(O)c12 show?
[A] 6.09

----------
assayComment: Pharmacokinetics study after separate oral administration in rats (HPLC-MS of plasma)
Format: in vivo, Sprague-Dawley rats
settings: male, Sprague-Dawley, rat, plasma, oral, 50 mg/kg, IQ group (oral IQ 50 mg/kg), 360 min, individual rats NO. 1-5; read-out: Plasma concentrations
measurementLabel: concentration at 360 min (ng/mL)
// return numeric value only (unit: ng/mL, not printed)

[Q] Bench note: what concentration at 360 min did O=c1c(O[C@@H]2O[C@H](CO)[C@@H](O)[C@H](O)[C@H]2O)c(-c2ccc(O)c(O)c2)oc2cc(O)cc(O)c12 show?
[A] 0

----------
assayComment: Pharmacokinetics study after separate oral administration in rats (HPLC-MS of plasma)
Format: in vivo, Sprague-Dawley rats
settings: male, Sprague-Dawley, rat, plasma, po, 50 mg/kg, Qr group (oral Qr 50 mg/kg), rat plasma; labelled substance = analyte; mean of 5 rats; read-out: AUC(0-t) (converted)
measurementLabel: AUC(0-t) (ng·h/mL)
// return numeric value only (unit: ng·h/mL, not printed)

{"compound": "O=C(O)[C@H]1O[C@@H](Oc2c(-c3ccc(O)c(O)c3)oc3cc(O)cc(O)c3c2=O)[C@H](O)[C@@H](O)[C@@H]1O [QG, Quercetin-3-O-β-D-glucuronide]", "measurementLabel": "AUC(0-t)", "observedValue": 19200}

--- query ---
[Q] Bench note: what AUC(0-t) did O=c1c(O)c(-c2ccc(O)c(O)c2)oc2cc(O)cc(O)c12 [Qr, Quercetin] show?
[A] 43200

----------
assayComment: Pharmacokinetics study after separate oral administration in rats (HPLC-MS of plasma)
Type: in vivo, Sprague-Dawley rats
settings: male, Sprague-Dawley, rat, plasma, oral, 50 mg/kg, QG group (oral QG 50 mg/kg), 5 min, individual rats NO. 1-5; read-out: Plasma concentrations
measurementLabel: concentration at 5 min (ng/mL)
// return numeric value only (unit: ng/mL, not printed)

[Q] Bench note: what concentration at 5 min did O=c1c(O)c(-c2ccc(O)c(O)c2)oc2cc(O)cc(O)c12 show?
[A] 0
